# Test system: surface layers of the skin (superficial stratum corneum)
# PROTOCOL_NOTES: Moisturizing efficiency of gel evaluated by corneometry
# Assay type: in vivo, human
# APPLIED_CONDITIONS: T0, before application; gel 6% by weight + 1% carbomer, around 2 mg/cm^2, inner forearm, ten volunteers
MEASUREMENT_LABEL: mean hydration value (Corneometer capacitance) (AU)

compound=OC[C@@H](O)[C@@H](O)[C@H](O)[C@@H](O)CO unit_of_measurement=AU obs_value=48.60
compound=C[N+](C)(C)CC(=O)O unit_of_measurement=AU obs_value=43.39
compound=OC[C@@H](O)[C@H](O)[C@@H](O)CO unit_of_measurement=AU obs_value=45.94
compound="O[C@@H]1CO[C@H]2[C@@H]1OC[C@@H]2O [Isosorbide, 1,4:3,6-dianhydrosorbitol]" unit_of_measurement=AU obs_value=46.54
compound=OCC(O)CO unit_of_measurement=AU obs_value=42.03
